For each record, write down the corresponding kon.
# Assayed target: T1, VEGF-D (recombinant human; source not given) (human, UniProt O43915 89-205, limits assumed)
# T1 construct: also used here as target of IC50 values averaged over Source 1 and Source 2; also called vascular endothelial growth factor-D
# T1 sequence: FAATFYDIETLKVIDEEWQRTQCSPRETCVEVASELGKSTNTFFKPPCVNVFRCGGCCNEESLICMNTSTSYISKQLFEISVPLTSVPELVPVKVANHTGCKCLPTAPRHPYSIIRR
# Assay details: SPR (BIAcore), VEGF-D amine-coupled on CM5, purified scFv as analyte

## Task For scFv clone A63 (scFv) scFv: QVQLVQSGAKVKQPGASVKASCKASGYTFTGYNMYWVRQAPGQGLEWMGYIDPYNGDTTYNQKFKGRVTMTTDTSTSTAYMELRSLRSDDTAVYYCARTSYYGGMDYWGRGTLVTVASGGGASGGGGSGGGGSDIVMTQTPLSSPVTLGQPASISCRSSQSLVHSNGNTYLHWLQQRPGQPPRLLIYKVSNRFSGVPDRFSGSGAGTDFTLKISRVEAEDVGVYYCSQSTHVPRTFGQGTKLEIKR , what is its reported kon?
## Result 1.49e+06 M⁻¹ s⁻¹

## Task # query: kon of entry scFv clone AW61 (scFv) scFv: QVQLVQSGAEVKQPGASVKVSCKASGYTFTGYNMYWVRQAPGQGLEWMGYIDPYNGDTTYNQKFKGRATMTTDTSTSTAYMKLRSLRSDDTAVYYCARTSYYGGMDYWGRGTLVTVASGGGASGGGGSGGGGSDIVMTQTPLSSPVTLGQPASISCRSSQSLVHSNGNTYLHWLQQRPGQPPRLLIYKVSNRFSGVPDRFSGSGAGTDFTLKISRVEAEDVGVYYCSQSTHVPRTFGQGTKLEIKR
## Result 1.96e+06 M⁻¹ s⁻¹
